assay: Stability of CGA acyl analogues in methanol solution (HPLC); assay type: physicochemical; conditions: 25 °C, day 9
value_kind: Amount remaining in methanol (HPLC area) (%)
Quick note: give the figure in %, leave out the unit.

Recorded Amount remaining in methanol (HPLC area), per entry:
Q: Report Amount remaining in methanol (HPLC area), nothing else, for this compound: CCCC(=O)Oc1ccc(/C=C/C(=O)OC2CCCCC2)cc1OC(=O)CCC [Compound 13a]
Result: 59.4842

Q: Report Amount remaining in methanol (HPLC area), nothing else, for this compound: CC(=O)Oc1ccc(/C=C/C(=O)OC2CCCCC2)cc1OC(C)=O [Compound 18]
Result: 10.5572

Q: Report Amount remaining in methanol (HPLC area), nothing else, for this compound: O=C(/C=C/c1ccc(OC(=O)C2CCCCC2)c(OC(=O)C2CCCCC2)c1)OC1CCCCC1 [Compound 13d]
Result: 90.6724

Q: Report Amount remaining in methanol (HPLC area), nothing else, for this compound: CCCCCC(=O)Oc1ccc(/C=C/C(=O)OC2CCCCC2)cc1OC(=O)CCCCC [Compound 13b]
Result: 74.0389

Please turn your attention to the following entry.
Q: Report Amount remaining in methanol (HPLC area), nothing else, for this compound: CC(C)(C)C(=O)Oc1ccc(/C=C/C(=O)OC2CCCCC2)cc1OC(=O)C(C)(C)C [Compound 13c]
Result: 97.4173

###

Test: Stability of CGA acyl analogues in methanol solution (HPLC)
Assay type: physicochemical
Settings: 25 °C, day 21
Procedure: The stability of the synthesized acyl analogues was measured in methanol, since the acetyl analogue of CGA was highly unstable in methanol solution. First, 10 mg of the sample was dissolved in 2 mL of methanol and stored at 25 °C. Then, purity was analyzed using HPLC (Shimadzu LC solution, Kyoto, Japan) for 28 days. […]
The label 1.0 is reserved for Amount remaining in methanol (HPLC area) strictly under 90%; 0.0 covers values equal to or above it.

These solved cases illustrate the format of a correct answer.
Q: Is it true that Amount remaining in methanol (HPLC area) reported for CCCC(=O)Oc1ccc(/C=C/C(=O)OC2CCCCC2)cc1OC(=O)CCC [Compound 13a] is less than 90%?
Result: 1.0

Q: Is it true that Amount remaining in methanol (HPLC area) reported for CCCCCC(=O)Oc1ccc(/C=C/C(=O)OC2CCCCC2)cc1OC(=O)CCCCC [Compound 13b] is less than 90%?
Result: 1.0

Q: Is it true that Amount remaining in methanol (HPLC area) reported for CC(=O)Oc1ccc(/C=C/C(=O)OC2CCCCC2)cc1OC(C)=O [Compound 18] is less than 90%?
Result: 1.0

Then there is this compound:
Q: Is it true that Amount remaining in methanol (HPLC area) reported for CC(C)(C)C(=O)Oc1ccc(/C=C/C(=O)OC2CCCCC2)cc1OC(=O)C(C)(C)C [Compound 13c] is less than 90%?
Result: 0.0

###

experiment: Stability of CGA acyl analogues in methanol solution (HPLC); type: physicochemical; conditions: 25 °C, day 7
value_kind: Amount remaining in methanol (HPLC area) (%)
Quick note: give the figure in %, leave out the unit.

Recorded Amount remaining in methanol (HPLC area), per entry:
Q: Report Amount remaining in methanol (HPLC area), nothing else, for this compound: CC(C)(C)C(=O)Oc1ccc(/C=C/C(=O)OC2CCCCC2)cc1OC(=O)C(C)(C)C [Compound 13c]
Result: 97.9332

Q: Report Amount remaining in methanol (HPLC area), nothing else, for this compound: CCCC(=O)Oc1ccc(/C=C/C(=O)OC2CCCCC2)cc1OC(=O)CCC [Compound 13a]
Result: 64.7751

Q: Report Amount remaining in methanol (HPLC area), nothing else, for this compound: O=C(/C=C/c1ccc(OC(=O)C2CCCCC2)c(OC(=O)C2CCCCC2)c1)OC1CCCCC1 [Compound 13d]
Result: 91.6229

Q: Report Amount remaining in methanol (HPLC area), nothing else, for this compound: CCCCCC(=O)Oc1ccc(/C=C/C(=O)OC2CCCCC2)cc1OC(=O)CCCCC [Compound 13b]
Result: 77.5962

Please turn your attention to the following entry.
Q: Report Amount remaining in methanol (HPLC area), nothing else, for this compound: `CC(=O)Oc1ccc(/C=C/C(=O)OC2CCCCC2)cc1OC(C)=O`
Result: 16.5047
